Where do the numbers come from? From patent US8957062B2.

molecular target: human GPR119 (Homo sapiens, UniProt Q8TDV5); assay: Measurement of GPR119 signaling (cAMP assay) in cells stably transfected with human GPR119; assay type: cell-based; conditions: table column; cAMP stimulation, human GPR119; read-out: GPR119 Human EC50
Sequence (Q8TDV5 1-308 limits assumed): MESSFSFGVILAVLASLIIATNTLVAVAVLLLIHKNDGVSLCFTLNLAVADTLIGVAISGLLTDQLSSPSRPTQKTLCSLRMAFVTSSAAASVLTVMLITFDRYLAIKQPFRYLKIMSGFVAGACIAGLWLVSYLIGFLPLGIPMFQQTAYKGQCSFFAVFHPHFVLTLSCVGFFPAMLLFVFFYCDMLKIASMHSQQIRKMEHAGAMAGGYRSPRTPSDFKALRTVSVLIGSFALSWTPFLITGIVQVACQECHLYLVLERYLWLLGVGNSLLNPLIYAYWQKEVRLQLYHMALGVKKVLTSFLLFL
pEC50: −log10 of the molar value.
RECORDED METRIC: pEC50

COMPOUND: CC(C)OC(=O)N1CCC([C@H]2C[C@H]2CCOc2ccc(S(C)(=O)=O)cn2)CC1 [Example 16]
pEC50: 7.34

COMPOUND: COCc1noc(N2CCC([C@H]3C[C@H]3CCOc3ccc(CC(=O)N4CCC[C@@H]4C(F)(F)F)c(F)c3)CC2)n1 [Example 203]
pEC50: 8.29

COMPOUND: CC(C)(C)OC(=O)N1CCC([C@H]2C[C@H]2CCOc2ccc(S(C)(=O)=O)cn2)CC1 [Example 17]
pEC50: 8.24

COMPOUND: CC(C)c1noc(N2CCC([C@H]3C[C@H]3CCOc3ccc(CC(=O)N(C)C)c(F)c3)CC2)n1 [Example 143]
pEC50: 9.03

COMPOUND: CC(C)c1noc(N2CCC([C@H]3C[C@H]3CCOc3ccc(CC(=O)N4CC(n5cccn5)C4)c(F)c3)CC2)n1 [Example 187]
pEC50: 8.52

I: CC(C)c1noc(N2CCC([C@H]3C[C@H]3CCOc3ccc(C(=O)C4CC4)c(F)c3)CC2)n1 [Example 117]
II: COCc1noc(N2CCC([C@H]3C[C@H]3CCOc3ccc(CC(=O)N4CC(F)C4)c(F)c3)CC2)n1 [Example 199]
III: CCOC(=O)N1CCC([C@H]2C[C@H]2CCOc2cc(C#N)nc(C)n2)CC1 [Example 45]
Please list these compounds in decreasing order of pEC50. Write the labels in rank order as requested.
I, II, III

A: Cc1cc(-n2cnnn2)cnc1OCC[C@@H]1C[C@@H]1C1CCN(c2nc(C(C)O)no2)CC1 (stereo partly drawn) [Example 229]
B: CC(C)(C)OC(=O)N1CCC([C@H]2C[C@H]2CCOc2cc(F)c(C(=O)C3CC3)c(F)c2)CC1 [Example 52]
C: CC1(COC(=O)N2CCC([C@H]3C[C@H]3CCOc3ccc(S(C)(=O)=O)cn3)CC2)CC1 [Example 23]
Please list these compounds in decreasing order of pEC50. Write the labels in rank order as requested.
B, C, A
(B: 9.70, C: 9.22, A: 8.30)

I: CCc1noc(N2CCC([C@H]3C[C@H]3CCOc3ccc(S(C)(=O)=O)cn3)CC2)n1 [Example 214]
II: CC(C)c1noc(N2CCC([C@H]3C[C@H]3CCOc3ccc(Cc4nncs4)c(F)c3)CC2)n1 [Example 257]
# argmax over pEC50 for candidates I and II Your answer should be the label of the entry you select.
II

A: CC(C)c1noc(N2CCC([C@H]3C[C@H]3CCOc3ccc(CC(=O)N4CCC(F)(F)CC4)c(F)c3)CC2)n1 [Example 148]
B: Cc1nc(C#N)cc(OCC[C@@H]2C[C@@H]2C2CCN(C(=O)OCC(C)C)CC2)n1 [Example 48]
Lower pEC50: A or B ? Your answer should be the label of the entry you select.
A

1: Cc1nc(C#N)cc(OCC[C@@H]2C[C@@H]2C2CCN(C(=O)OC3(C)CC3)CC2)n1 [Example 49]
2: O=C(OCc1ccccc1)N1CCC([C@H]2C[C@H]2CCOc2ccc(-n3cnnn3)cn2)CC1 [Example 33]
3: CC(C)c1noc(N2CCC([C@H]3C[C@H]3CCOc3ccc(CC(=O)N4Cc5cccnc5C4)c(F)c3)CC2)n1 [Example 159]
Please list these compounds in decreasing order of pEC50. Write the labels in rank order as requested.
3, 1, 2

P: CC(C)c1noc(N2CCC([C@H]3C[C@H]3CCOc3ccc(CC(=O)N4CCc5ccsc5C4)c(F)c3)CC2)n1 [Example 173]
Q: CC(C)c1noc(N2CCC([C@H]3C[C@H]3CCOc3ccc(S(C)(=O)=O)c(F)c3)CC2)n1 [Example 119]
Lower pEC50: P or Q ? Your answer should be the label of the entry you select.
P
(P: 8.66, Q: 8.89)
